# merged literature set: IC50 with UniProtKB P18031

CC1NCC=C1c1ccc(O)c(N2CC(=O)NS2(=O)=O)c1F (centres unmarked)	> 1000 nM
Cn1c(=O)c(NCCC2CCCC2)cc2c(F)c(N3CC(=O)NS3(=O)=O)c(O)cc21	≤ 1000 nM
O=C1CN(c2c(O)ccc(C3=CCN(C4CC4)C3)c2F)S(=O)(=O)N1	≤ 1000 nM
O=C1CN(c2c(O)ccc(-c3cnn(C4CC5CCC(C4)O5)c3)c2F)S(=O)(=O)N1 (centres unmarked)	≤ 1000 nM
COC(=O)N[C@@H](Cc1ccccc1)C(=O)N[C@@H](Cc1ccc(NS(=O)(=O)O)cc1)c1nc(-c2ccccc2)cs1	597 nM
O=C(NCCn1cncn1)c1ccc2sc(C(F)(F)P(=O)(O)O)c(Br)c2c1	3650 nM

Q. Indicate its recorded IC50; the compound in question is `CCc1csc([C@H](Cc2ccc(NS(=O)(=O)O)cc2)NC(=O)Cc2ccc(OC)c(OC)c2)n1`
A. 15500 nM

Q. Complete the entry with IC50 for `N#CNC(=N)N1CC=C(c2ccc(O)c(N3CC(=O)NS3(=O)=O)c2F)C1`
A. ≤ 1000 nM

Q. Kindly indicate its recorded IC50. Item: CC(C)CCC1C=C(c2ccc(O)c(N3CC(=O)NS3(=O)=O)c2F)CN1 (centres unmarked)
A. ≤ 1000 nM

Q. Dear colleague, please send me the reported IC50 for CN(C)C1CC=C(c2ccc(O)c(N3CC(=O)NS3(=O)=O)c2F)C1 (centres unmarked) when you can.
A. ≤ 1000 nM

Q. Note IC50 for the compound shown: `C/C(=N\OCC(=O)O)c1cccc(Nc2nnc(-c3cccc(Oc4cccc(C(F)(F)F)c4)c3)s2)c1`
A. 5000 nM

* * *

Consider the following IC50 data for UniProtKB P18031, collected from several reports.
Readout label: IC50 (nM)

Cc1nc(Cc2nnc(N[C@@H](Cc3ccc(NS(=O)(=O)O)cc3)c3csc(-c4cccs4)n3)s2)cs1	580

(I) NC(=O)c1cc(OCc2cc(F)cc(C(F)(F)F)c2)c2sc(C(F)(F)P(=O)(O)O)c(Br)c2c1
(II) CC(C)CCOc1cc(C(N)=O)cc2c(Br)c(C(F)(F)P(=O)(O)O)sc12
Q. Determine, for I and II , which has the greater value of IC50. Which one? Tell me its label.
A. II

(A) Cc1cc(-c2ccccc2)c(-c2ccc(O[C@H](Cc3ccccc3)C(=O)O)cc2)n1-c1ccc(Br)cc1
(B) O=C(NCc1ncn[nH]1)c1ccc2sc(C(F)(F)P(=O)(O)O)c(Br)c2c1
Q. Exercise: compare A and B ; which one has the greater IC50? Write down the label of the entry you select.
A. B
(B: 1300 nM, A: 720 nM)

(A) COC(=O)N[C@@H](Cc1ccccc1)C(=O)N[C@@H](Cc1ccc(NS(=O)(=O)O)cc1)c1nc(CCC(F)(F)F)cs1
(B) O=C(NCc1cncc(C(F)(F)F)c1)c1ccc2sc(C(F)(F)P(=O)(O)O)c(Br)c2c1
Q. Compare reported IC50 values for A and B . Which is lower? Response format: the label of the selected entry.
A. A

* * *

Reported IC50 on Tyrosine-protein phosphatase non-receptor type 1 (Homo sapiens) for assorted compounds, compiled from publications.

Worked set:
CC(C)CNc1cccc(-c2ccc(O)c(N3CC(=O)NS3(=O)=O)c2F)c1	≤ 1000 nM
NC(=O)C1CC1c1cc(-c2ccc(O)c(N3CC(=O)NS3(=O)=O)c2F)[nH]n1 (centres unmarked)	≤ 1000 nM
Cc1cc(-c2cnn(CCC(C)C)c2)cc(N2CC(=O)NS2(=O)=O)c1O	> 1000 nM
COc1cc2c(F)c(N3CC(=O)NS3(=O)=O)c(O)cc2n(C)c1=O	≤ 1000 nM
O=C1CN(c2c(O)ccc(-c3cc(C(=O)N4CCC4)n[nH]3)c2F)S(=O)(=O)N1	≤ 1000 nM

Read the next record carefully.
Q. Give IC50 only, for `COC(=O)N[C@@H](Cc1ccccc1)C(=O)N[C@@H](Cc1ccc(NS(=O)(=O)O)cc1)c1csc(-c2cnccn2)n1` , using Tyrosine-protein phosphatase non-receptor type 1 (Homo sapiens) data.
A. 295 nM

* * *

pIC50: −log10 of the molar value.
Listed below are compounds with pIC50 for UniProt P18031, each taken from published literature.
Readout label: pIC50

CCCC(CO)Oc1cc(C(N)=O)cc2c(Br)c(C(F)(F)P(=O)(O)O)sc12 (stereo not drawn)	6.64
COC(=O)N[C@@H](Cc1ccccc1)C(=O)N[C@@H](Cc1ccc(NS(=O)(=O)O)cc1)c1nc(-c2ccc(Cl)s2)cs1	6.43
NC(=O)c1cc(OCCC2CC2(F)F)c2sc(C(F)(F)P(=O)(O)O)c(Br)c2c1 (stereo not drawn)	7.40
Cc1ccc2nc(-c3ccc(/C=C/C(=O)O)cc3)c(-c3ccc(/C=C/C(=O)O)cc3)nc2c1	5.42

(P) CC(NC(=O)c1ccc2sc(C(F)(F)P(=O)(O)O)c(Br)c2c1)c1cccc(OC(F)(F)F)c1 (stereo not drawn)
(Q) NC(=O)c1cc(OCC23COC(CF)(C2)C3)c2sc(C(F)(F)P(=O)(O)O)c(Br)c2c1
Q. Name the one with the greater pIC50 value, either P or Q as given. # respond with the chosen item's label
A. Q
(Q: 7.96, P: 5.54)

* * *

Compiled notes: published IC50 values involving Tyrosine-protein phosphatase non-receptor type 1 (Homo sapiens).

// known answers, use as guide
CC12CC(COc3cc(C(N)=O)cc4c(Br)c(C(F)(F)P(=O)(O)O)sc34)(C1)C2	0.028 µM
O=C(O)c1ccc(Cn2nc(-c3cccc(Oc4cccc(C(F)(F)F)c4)c3)sc2=Nc2ccc(Cl)c(Cl)c2)cc1	1 µM

Q. State measured IC50 of the molecule `NC(=O)c1cc(OCCCCS(N)(=O)=O)c2sc(C(F)(F)P(=O)(O)O)c(Br)c2c1` with Tyrosine-protein phosphatase non-receptor type 1 (Homo sapiens).
A. 0.0234 µM

Q. Look up and report IC50, with Tyrosine-protein phosphatase non-receptor type 1 (Homo sapiens) as system, for `O=C1CN(c2c(O)cc3sc(C(=O)NCCc4ccccc4)cc3c2F)S(=O)(=O)N1`
A. ≤ 1 µM

Q. Report IC50 under test system Tyrosine-protein phosphatase non-receptor type 1 (Homo sapiens) for `O=C(NCC(F)(F)F)c1ccc2sc(C(F)(F)P(=O)(O)O)c(Br)c2c1` .
A. 4.15 µM

Q. // output IC50; input `CS(=O)(=O)c1ccc(COc2cc(-c3cnn[nH]3)cc3c(Br)c(C(F)(F)P(=O)(O)O)sc23)cc1` ; system Tyrosine-protein phosphatase non-receptor type 1 (Homo sapiens)
A. < 0.0025 µM

Q. GET IC50 where system = Tyrosine-protein phosphatase non-receptor type 1 (Homo sapiens) and item = `O=C1CN(c2c(O)ccc(-c3cnn(C(=O)NC4CC4)c3)c2F)S(=O)(=O)N1`
A. ≤ 1 µM

Q. Provide Tyrosine-protein phosphatase non-receptor type 1 (Homo sapiens) IC50 reading for `O=C1CN(c2c(O)ccc(-c3cccc(N4CCCC4)c3)c2F)S(=O)(=O)N1` .
A. ≤ 1 µM

Q. Report measured IC50 on Tyrosine-protein phosphatase non-receptor type 1 (Homo sapiens); entry: `CN(C(=O)c1ccc2sc(C(F)(F)P(=O)(O)O)c(Br)c2c1)c1cccc(Oc2ccccc2)c1`
A. 4.44 µM

Q. Output reported IC50 of the molecule O=C1CN(c2c(O)ccc(-c3ccc(NC(=O)C4CC4(F)F)cc3)c2F)S(=O)(=O)N1 (centres unmarked) on Tyrosine-protein phosphatase non-receptor type 1 (Homo sapiens).
A. ≤ 1 µM

Q. Tell me its IC50 on Tyrosine-protein phosphatase non-receptor type 1 (Homo sapiens): `O=C1CN(c2c(Cl)ccc(-c3cc(C4CC4)n[nH]3)c2F)S(=O)(=O)N1`
A. ≤ 1 µM

Q. Fill in: IC50 on Tyrosine-protein phosphatase non-receptor type 1 (Homo sapiens), entry O=C1CN(c2c(O)ccc(-c3cnn(C4CCC(O)CC4)c3)c2F)S(=O)(=O)N1 (centres unmarked)
A. ≤ 1 µM
